Recorded values, source the supplement of paper PMC6089552.

- Tested on: A673/TR/shEF
- ASSAY_EXPLANATION: cell viability (LOESS-normalised, relative to median of negative controls) (log2 ratio); higher = more viable cells (less compound effect), active = hit call of the paper (over 3 MAD below the median)
- TEST_SETTINGS: 0.25 µM; library screen: screen1; EWS-FLI1 expression: high (no doxycycline); treatment time: 72 h
Among all 3,200 compounds or so, about 300 (9.4%) showed activity. The list comes from a sample in which actives are over-represented; it also holds close analogues and randomly drawn compounds.
cell viability (log2) under 0.06 gets condition met, anything at or over 0.06 gets condition not met.

INSERT INTO results (molecule, cat) VALUES
  ('COc1ccc2c(c1O)-c1c(OC)c(OC)cc3c1[C@H](C2)N(C)CC3', 'condition met'),
  ('COc1cccc(CN2CCN(Cc3ccccc3OC)CC2)c1', 'condition not met'),
  ('CC(=O)[C@H]1CC[C@H]2[C@@H]3CC[C@H]4C[C@@H](O)CC[C@]4(C)[C@H]3CC[C@]12C', 'condition not met'),
  ('ClC1C(Cl)C(Cl)C(Cl)C(Cl)C1Cl (centres undefined)', 'condition not met'),
  ('CCCCCC[C@H]1C(=O)O[C@H](C)[C@H](NC(=O)c2cccc(NC=O)c2O)C(=O)O[C@@H](C)[C@@H]1OC(=O)CC(C)C', 'condition met'),
  ('C[C@]12CCC3C(CC[C@H]4C[C@H](O)CC[C@]34C)C1CC[C@@H]2O (some centres undefined)', 'condition not met'),
  ('CNc1ccc2oc(C[C@@H]3OC4(CC[C@@H]3C)O[C@H](C(C)C(=O)c3ccc[nH]3)[C@H](C)C[C@H]4C)nc2c1C(=O)O (some centres undefined)', 'condition not met'),
  ('NC(=NCCCC(N)C(=O)O)N[N+](=O)[O-] (centres undefined)', 'condition met'),
  ('C=C(C)C(=O)/C(=C\C(=O)O)OC', 'condition not met'),
  ('CNC(=O)Oc1cccc2c1OC(C)(C)O2', 'condition not met'),
  ('C[C@]12CC[C@H](O)C[C@H]1CC[C@@H]1[C@@H]2C[C@@H](O)[C@]2(C)[C@@H](C3=CC(=O)OC3)CC[C@]12O', 'condition met'),
  ('CN(C)[C@@H]1C(=O)C(C(N)=O)=C(O)[C@@]2(O)C(=O)C3=C(O)c4c(O)cccc4[C@@](C)(O)[C@H]3[C@H](O)[C@@H]12', 'condition not met'),
  ('S=C=NCc1ccccc1', 'condition met'),
  ('CC(C)CC(NC(=O)C(Cc1ccccc1)NC(=O)CNC(=O)CNC(=O)C(N)Cc1ccc(O)cc1)C(=O)O (centres undefined)', 'condition not met'),
  ('N#C/C(=C\c1ccc(O)cc1)C(=O)O', 'condition met'),
  ('COc1cc2c(c(OC)c1OC)-c1ccc(OC)c(=O)cc1[C@@H](NC(C)=O)CC2', 'condition met'),
  ('C[C@]12CC[C@H](O)C[C@H]1CC[C@@H]1[C@@H]2[C@H](O)C[C@]2(C)[C@@H](C3=CC(=O)OC3)CC[C@]12O', 'condition not met'),
  ('c1ccc2c(c1)cc1ccc3cccc4ccc2c1c34', 'condition not met'),
  ('C=C(C)c1cc2cc(C(C)=O)c(O)cc2o1', 'condition not met'),
  ('COc1cc([C@@H]2c3cc4c(cc3[C@H](OC(C)=O)[C@H]3COC(=O)[C@H]23)OCO4)cc(OC)c1OC', 'condition met'),
  ('NCCc1cc(O)c(O)cc1O', 'condition not met'),
  ('C=C1[C@H]2CCC3[C@@](CC[C@@H]4[C@H](C(=O)O)C[C@@H](O[C@H]5O[C@H](CO)[C@@H](OS(=O)(=O)O)[C@H](OS(=O)(=O)O)[C@H]5OC(=O)CC(C)C)C[C@@]34C)(C2)[C@H]1O (some centres undefined)', 'condition not met'),
  ('COc1cc([C@@H]2c3cc4c(cc3[C@H](O)[C@H]3COC(=O)[C@@H]23)OCO4)cc(OC)c1OC', 'condition met'),
  ('C[N+]1(C)C2CC(OC(=O)C(CO)c3ccccc3)CC1C1OC12 (centres undefined)', 'condition not met'),
  ('COc1ccc2c(c1OC)C(=O)O[C@H]2[C@H]1c2cc3c(cc2CCN1C)OCO3', 'condition not met'),
  ('COC(C)(C)CCCC(C)C/C=C/C(C)=C/C(=O)OC(C)C (centres undefined)', 'condition met'),
  ('C[C@]12CC[C@H](O)C[C@@H]1CC[C@@H]1[C@@H]2CC[C@]2(C)C(=O)CC[C@@H]12', 'condition not met'),
  ('CC1(C)C(=O)C=C[C@]2(C)C3CC[C@@]4(C)[C@H](c5ccoc5)C[C@H]5O[C@]54C3[C@H](O)CC12 (some centres undefined)', 'condition met'),
  ('C[C@]12CC[C@H](O)C[C@@H]1CC[C@@H]1[C@@H]2CC[C@]2(C)[C@@H](O)CC[C@@H]12', 'condition not met');
